System: isolated microspores of Triticale (variety Sunray)
Experiment: CPP delivery of GUS enzyme into isolated microspores, GUS staining
Format: cell-based
Details: GUS enzyme cargo:CPP 1:4, 1 hour at 37° C., three repeats
Experimental: Triticale line Sunray grown in a growth cabinet with a photoperiod of 19 h day (intensity 300 μE m-2 s-1), and temperature 18-15° C. (day-night) with a relative humidity at about 70% was used as the donor plant material. […] Awns were removed with scissors in a laminar flow hood. […] After counting the cells using a haemocytometer, aliquots of 100,000 cells in 200 μl volume were prepared in 2 ml microcentrifuge tubes to be ready for transduction. […]
Recorded measurements of Average Transduction Efficiency, one per entry
The reply should be a number in %, with the unit left off.

Use the examples below as a reference point.
Query: Form field: Average Transduction Efficiency recorded for RRRRRRRRRRKRGGRR [CPP14] with isolated microspores of Triticale (variety Sunray) (enter value)
Result: 0

Query: // same read-out, input: RKRKRGKGIGSGRGRGRGR [CPP43]
Result: 0

Query: // same read-out, input: RRRIAGSALVGAPPQARRRRRRR [CPP52]
Result: 0

Query: // same read-out, input: RRARRRTRRGGGEAGRRQERRRRRRRR [CPP31]
Result: 0

Query: // same read-out, input: RSGRRDRRRKKGSAR [CPP59]
Result: 0

Query: // same read-out, input: RRRRKKRGRKGRDKEERRDRRRRRRR [CPP40]
Result: 11.74

Query: // same read-out, input: KAKKNRSHIGKLKMTKTSGRKRSR [CPP21]
Result: 0

Query: // same read-out, input: KEKKKERRGVRDKERDK [CPP53]
Result: 0

Further cases:
Query: Form field: Average Transduction Efficiency recorded for RRPHSRHRRRRRRR [CPP10] with isolated microspores of Triticale (variety Sunray) (enter value)
Result: 0

Query: // same read-out, input: KKKKKKKRPTALTPTPSLLRRRRRRR [CPP26]
Result: 0

Query: // same read-out, input: RRRKGSSYRRRRRRRRR [CPP20]
Result: 0

Query: // same read-out, input: RRRPRPARLRHRLHRPINLKFERK [CPP15]
Result: 9.23

Query: // same read-out, input: KSKANRHRHHRRHRQQKPTTTRRRRR [CPP64]
Result: 5.40

* * *

Recorded measurements of Average Transduction Efficiency, one per entry
System: isolated microspores of Triticale (variety Sunray)
Assay: CPP delivery of GUS enzyme into isolated microspores, GUS staining
Assay type: cell-based
Details: GUS enzyme cargo:CPP 1:4, 1 hour at 37° C., three repeats
The reply should be a number in %, with the unit left off.

Use the examples below as a reference point.
Query: Entry MDERRRRRRRLTATRKVAAARRRRKRR [CPP54] : reported Average Transduction Efficiency = ?
Result: 6.21

Query: // same read-out, input: MRRRRRRRRR [CPP48]
Result: 1.09

Query: // same read-out, input: KKKGKGKKKKQGK [CPP4]
Result: 0

Further cases:
Query: Entry RAWYRFRHLVRGKWRERLRRKFK [CPP62] : reported Average Transduction Efficiency = ?
Result: 9.78

Query: // same read-out, input: KTAATTLRRRRRRRRGRR [CPP28]
Result: 5.61

Query: // same read-out, input: RVRSSRRAAEGRRRRRRREKR [CPP37]
Result: 1.94

Query: // same read-out, input: RTSKRRVRRRRRRR [CPP38]
Result: 0

Query: // same read-out, input: RRLRCRREGKEKR [CPP60]
Result: 0

Query: // same read-out, input: RRRRRITRVRRRRRRR [CPP39]
Result: 13.15

Query: // same read-out, input: RRRRRRRAGERRAREDMGRRKFR [CPP19]
Result: 0

Query: // same read-out, input: RSSRRAAEGRRRRRRRREKR [CPP36]
Result: 0

Query: // same read-out, input: RRRRKKRGRKGRDKEERRDR [CPP42]
Result: 1.20

Query: // same read-out, input: RRRRRRRGRDARRR [CPP8]
Result: 2.78

Query: // same read-out, input: RRRQERRER [CPP63]
Result: 0

Query: // same read-out, input: RCRRRRRRRETTSR [CPP67]
Result: 0

Query: // same read-out, input: KGHRFRSKFRHYRFRFR [CPP45]
Result: 0

Query: // same read-out, input: RLKRRRRRRRKVSRR [CPP33]
Result: 15.67

Query: // same read-out, input: RRRGRRRRRRRRQRQQRR [CPP6]
Result: 15.07
